- Test system: myasthenogenic antibody mAB 198
- Assay info: Peptide microarray mimotope screen, binding of mAB 198 to linear and cyclic peptides (fluorescence readout)
- Set-up: species or system rat
- Experimental conditions: cyclic mimotopes; binding of mAB 198, relative fluorescent signal after normalization against background
Measured property: relative signal [%] (%)

- 168 (VRLRWNPADYS) [compound 168]: 10.5
- 102 (RLRVNPADY) [compound 102]: 61.3
- 182 (RSRWNPADY) [compound 182]: 9.8
- 160 (ALRWNPADY) [compound 160]: 11.5
- 157 (GSLRINPADYG) [compound 157]: 12.1
- 171 (GGSLRWNPADR) [compound 171]: 10.3
- 152 (GGGSLRRNPAD) [compound 152]: 12.5
- 118 (RLRINPADY) [compound 118]: 25.5
- 143 (RTNPADY) [compound 143]: 14.6
- 105 (RLNPADY) [compound 105]: 42.3
- 177 (GSLRWNPADYN) [compound 177]: 10.0
- 185 (RLRWNPADYGS) [compound 185]: 9.7
- 137 (RVNPADY) [compound 137]: 18.7
